Here's a batch of compounds along with measured IC50 for UniProtKB Q92731.
Sequence (Q92731 whole entry): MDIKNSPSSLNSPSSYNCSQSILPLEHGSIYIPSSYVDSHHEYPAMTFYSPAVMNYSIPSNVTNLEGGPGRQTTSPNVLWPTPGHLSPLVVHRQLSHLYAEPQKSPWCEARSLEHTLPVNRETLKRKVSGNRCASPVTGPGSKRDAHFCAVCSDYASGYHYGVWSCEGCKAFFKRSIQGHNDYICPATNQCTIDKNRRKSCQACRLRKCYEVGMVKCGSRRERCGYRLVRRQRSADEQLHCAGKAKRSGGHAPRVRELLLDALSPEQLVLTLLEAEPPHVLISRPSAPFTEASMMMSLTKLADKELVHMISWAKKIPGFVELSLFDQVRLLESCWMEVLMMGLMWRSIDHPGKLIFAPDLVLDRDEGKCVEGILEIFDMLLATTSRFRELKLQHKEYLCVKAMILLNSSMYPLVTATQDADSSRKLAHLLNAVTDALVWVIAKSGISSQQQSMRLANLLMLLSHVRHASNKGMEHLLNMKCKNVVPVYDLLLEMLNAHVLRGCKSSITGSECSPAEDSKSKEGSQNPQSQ
metric_name: IC50 (µM)

Oc1ccc(-c2ccc3cc(O)ccc3n2)cc1 | 0.171
C#Cc1cc(-c2ccc(O)c(F)c2)nc2ccc(O)cc12 | 0.027
CCc1cc(-c2ccc(O)cc2)nc2ccc(O)cc12 | 0.052

a. Oc1ccc2nc(-c3ccc(O)c(F)c3)cc(-c3ccccc3)c2c1
b. C#Cc1cc(-c2ccc(O)cc2)nc2ccc(O)cc12
Kindly compare a with b and tell me which has the lower IC50 figure. Your choice should be expressed through its label. b
(b: 0.075 µM, a: 0.211 µM)

* * *

Here's a batch of molecules along with measured pIC50 for Estrogen receptor (Homo sapiens, UniProt P03372).
pIC50: −log10 of the molar value.
metric_name: pIC50

Some molecules with recorded pIC50:
CCc1cc(-c2ccc(O)c(F)c2)nc2ccc(O)cc12 | 5.76
Oc1ccc(-c2ccc3cc(O)ccc3n2)cc1 | 5.75
C#Cc1cc(-c2ccc(O)c(F)c2)nc2ccc(O)cc12 | 5.88

A. Oc1ccc2nc(-c3ccc(O)c(F)c3)cc(-c3ccccc3)c2c1
B. Oc1ccc(-c2ccc3c(Br)c(O)ccc3n2)cc1
C. C=Cc1cc(-c2ccc(O)c(F)c2)nc2ccc(O)cc12
Arrange these molecules by their pIC50, starting with the largest number. Form entry: labels listed in requested order. C, B, A
